- Organism: Rattus norvegicus
- experimental-details: DrugMatrix - Regimen: Daily Repeat
- Assay type: toxicity, organism-based, Sprague-Dawley
- Design: regimen Daily Repeat, gender Male, age 6-8 weeks
- test-conditions: in vivo, po, 0 mg/kg, 120 h, tissue Blood, route oral GAVAGE, dose level Control, time 5 day, vehicle 100 % WATER
Parameter: MEAN CORPUSCULAR HEMOGLOBIN CONCENTRATION. Scope: all listed entries.
Answer in G/DL, number only, no unit symbol.

Solved entries:
molecule: CC1(C)S[C@@H]2[C@H](NC(=O)[C@H](N)c3ccc(O)cc3)C(=O)N2[C@H]1C(=O)O [AMOXICILLIN]
result: 37.8
//
molecule: COc1cccc(C2(O)CCCCC2CN(C)C)c1 (stereo not given) [TRAMADOL]
result: 39.33
//
molecule: NCC1(CC(=O)O)CCCCC1 [GABAPENTIN]
result: 40.73
//
molecule: Nc1ccc(S(=O)(=O)Nc2ccnn2-c2ccccc2)cc1 [SULFAPHENAZOLE]
result: 38.43

Now for another entry.
Item NNC(=O)c1ccncc1 [ISONIAZID] has what recorded MEAN CORPUSCULAR HEMOGLOBIN CONCENTRATION?
37.35
